Tested on: AuAHLA
Construct: gene ahla; full ORF of 808 residues expressed untagged in Rhodococcus sp; T104, secreted; signal peptide of 34-35 aa removed
Assay: hydrolysis, o-phthalaldehyde fluorometric assay of released primary amine
Assay type: biochemical, Actinoplanes utahensis
Details: 0.2 M potassium phosphate pH 8.0, 45 °C, 20% (v/v) DMSO
RECORDED ENDPOINT: Km (µM)

[[record]]
smiles_str = "CCCCCCCC(=O)CC(=O)N[C@H]1CCOC1=O"
unit_tag = "µM"
observed_measurement = 238

[[record]]
smiles_str = "CCCCCC(=O)CC(=O)N[C@H]1CCOC1=O"
unit_tag = "µM"
observed_measurement = 1040

[[record]]
smiles_str = "CCCCCCCCCC(=O)N[C@H]1CCOC1=O"
unit_tag = "µM"
observed_measurement = 84


(P) CCCCCCCC(=O)N[C@H]1CCOC1=O
(Q) CCCCCCCCCC(=O)CC(=O)N[C@H]1CCOC1=O
(R) CCCCCCCCCCCC(=O)N[C@H]1CCOC1=O
# desc sort on Km across 3 compounds The response must list the labels following the requested ordering.
P, Q, R

Reference source for all entries: paper PMC8388760
